Cited source: paper PMC10726135

Listed below: binding signal values for each entry.
tested.system: HNF4alpha8 (COS-7 nuclear extract) (Homo sapiens, UniProt P41235-5 1-452)
Sequence: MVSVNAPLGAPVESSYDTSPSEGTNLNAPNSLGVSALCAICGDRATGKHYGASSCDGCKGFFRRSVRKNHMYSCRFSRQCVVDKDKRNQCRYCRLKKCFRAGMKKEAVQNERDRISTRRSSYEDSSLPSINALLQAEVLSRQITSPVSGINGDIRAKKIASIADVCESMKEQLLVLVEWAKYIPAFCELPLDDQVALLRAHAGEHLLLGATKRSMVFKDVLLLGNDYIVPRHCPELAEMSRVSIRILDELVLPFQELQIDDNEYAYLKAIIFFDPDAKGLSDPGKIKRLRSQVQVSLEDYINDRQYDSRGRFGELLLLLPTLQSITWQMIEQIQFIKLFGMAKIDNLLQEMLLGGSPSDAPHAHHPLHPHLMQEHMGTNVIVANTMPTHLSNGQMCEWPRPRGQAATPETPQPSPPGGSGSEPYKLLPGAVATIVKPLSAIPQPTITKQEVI
method.summary: protein-binding microarray; COS-7 nuclear extract on double-stranded Agilent 4x180k PBM; binding buffer, salt, pH and temperature not given in the material; high values mean tight binding
settings: chain copies: 2; label: 3' end of strand 1 on the slide; dsDNA, one strand shown
The full ranking holds about 18,000 sequences; the median of “log2 normalized intensity” is about 0.36, and the highest 2% start at about 7.3. Many of the other results were omitted from the sample, so the highest values are more common in it than they were.
The figure you give is taken to be in log2 normalized intensity; do not add the unit.

record.sequence: AGTCTTGAGTCCCAAAGTCCAAAGGCAGTCGCCTAGGGAGATTAGAGTATCGGTCGA
binding signal (log2 normalized intensity): 3.61
//
record.sequence: GACCAGTCTGCCTGACTCCAGAGTCCAAACGCCTAGGGAGATTAGAGTATCGGTCGA
binding signal (log2 normalized intensity): 4.23
//
record.sequence: ATTCCTAAGTTCCAAAGGCCATCCACATTCGCCTAGGGAGATTAGAGTATCGGTCGA
binding signal (log2 normalized intensity): 2.4
//
record.sequence: CTATCTGCCTGCAGGAGAGAGCAAAGTCCAGCCTAGGGAGATTAGAGTATCGGTCGA
binding signal (log2 normalized intensity): 8.21

Here is another sequence to look at.
Quick one: binding signal for AGTCCAAAGGTCTGAGAACCAAGAGAGCCAGCCTAGGGAGATTAGAGTATCGGTCGA ?
1.62

* * *

tested.system: HNF4alpha8 (COS-7 nuclear extract) (Homo sapiens, UniProt P41235-5 1-452)
Sequence: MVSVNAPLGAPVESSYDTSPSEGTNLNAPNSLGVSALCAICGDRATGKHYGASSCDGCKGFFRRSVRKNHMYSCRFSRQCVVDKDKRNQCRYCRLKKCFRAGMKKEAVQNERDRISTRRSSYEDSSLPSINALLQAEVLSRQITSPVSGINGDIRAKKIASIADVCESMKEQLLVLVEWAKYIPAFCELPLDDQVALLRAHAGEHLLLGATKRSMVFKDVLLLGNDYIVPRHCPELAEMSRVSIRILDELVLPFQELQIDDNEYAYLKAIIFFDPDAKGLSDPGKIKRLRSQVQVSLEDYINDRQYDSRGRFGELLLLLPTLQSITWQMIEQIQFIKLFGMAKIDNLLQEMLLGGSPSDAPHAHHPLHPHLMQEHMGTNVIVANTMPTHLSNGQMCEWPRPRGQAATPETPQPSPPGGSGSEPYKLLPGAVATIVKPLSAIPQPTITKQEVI
method.summary: protein-binding microarray; COS-7 nuclear extract on double-stranded Agilent 4x180k PBM; binding buffer, salt, pH and temperature not given in the material; high values mean tight binding
settings: chain copies: 2; label: 3' end of strand 1 on the slide; dsDNA, one strand shown
The full ranking holds about 18,000 sequences; the median of “log2 normalized intensity” is about 0.36, and the highest 2% start at about 7.3. Many of the other results were omitted from the sample, so the highest values are more common in it than they were.
value.kind: binding signal
Could you write the number and then its unit?

record.sequence: CCTGGTGACCTTTGTTTGGTCAAATACCTAGCCTAGGGAGATTAGAGTATCGGTCGA
binding signal: 3.66 log2 normalized intensity

record.sequence: GTACTTTGTACATGGGAATAGACATTCCAGGCCTAGGGAGATTAGAGTATCGGTCGA
binding signal: 1.99 log2 normalized intensity

record.sequence: CCACACAGCACGTAATAGTTCATGAAATGGGCCTAGGGAGATTAGAGTATCGGTCGA
binding signal: 0.614 log2 normalized intensity

record.sequence: GAGCAAAGGGCATGGAGGATTTAGATAACAGCCTAGGGAGATTAGAGTATCGGTCGA
binding signal: 0.728 log2 normalized intensity

record.sequence: TAGGCATGCAAACTTTGTTTAATGATTGCAGCCTAGGGAGATTAGAGTATCGGTCGA
binding signal: 0.0707 log2 normalized intensity

record.sequence: AAGTATCTCGGTCAAACCTTTGACCCTTTAGCCTAGGGAGATTAGAGTATCGGTCGA
binding signal: 6.9 log2 normalized intensity

Need binding signal, item GCAAACCTGCCCTTTGCTCCAGAGGAAGATGCCTAGGGAGATTAGAGTATCGGTCGA
3.81 log2 normalized intensity

Moving on to ATCACTGAAGCGACCCCTCGAGGCAACCTTGCCTAGGGAGATTAGAGTATCGGTCGA
1.75 log2 normalized intensity

How about this sequence: AAAACCATTGCAAATTGGATGTTGAACCTCGCCTAGGGAGATTAGAGTATCGGTCGA
4.51 log2 normalized intensity

And TCTTATTTACCGAAATGTGGGTGAGGCTGTGCCTAGGGAGATTAGAGTATCGGTCGA ?
1.67 log2 normalized intensity

Same thing, different sequence: TTGATCCAGGATCCTTCTTGACCAGGCAAGGCCTAGGGAGATTAGAGTATCGGTCGA
0.747 log2 normalized intensity

Input AGCAGATGGCCAGCCTTTGGACTTTGAACTGCCTAGGGAGATTAGAGTATCGGTCGA
11.2 log2 normalized intensity

Can you check GTCAAATCACTGAAGCGACCCCTCGAGGCAGCCTAGGGAGATTAGAGTATCGGTCGA next?
1.82 log2 normalized intensity

Same lookup for ATTAACTAACCTTTGAACCAGATGGCCCTCGCCTAGGGAGATTAGAGTATCGGTCGA , please.
4.3 log2 normalized intensity

Repeat with ACTTTGACCTAGAAGCCAGGGACCAGGAAGGCCTAGGGAGATTAGAGTATCGGTCGA
-0.796 log2 normalized intensity

Queued: CAGCCTTTGGACTTTGAACTGCAACATCAGGCCTAGGGAGATTAGAGTATCGGTCGA
8.89 log2 normalized intensity

Another sequence: AGAGAGTTCTATGGGATGACCTTTGAGCAAGCCTAGGGAGATTAGAGTATCGGTCGA
7.89 log2 normalized intensity
